tested target: Phosphatidylinositol 4,5-bisphosphate 3-kinase catalytic subunit delta isoform (Homo sapiens, UniProt O00329)
Sequence (O00329 whole entry, canonical isoform): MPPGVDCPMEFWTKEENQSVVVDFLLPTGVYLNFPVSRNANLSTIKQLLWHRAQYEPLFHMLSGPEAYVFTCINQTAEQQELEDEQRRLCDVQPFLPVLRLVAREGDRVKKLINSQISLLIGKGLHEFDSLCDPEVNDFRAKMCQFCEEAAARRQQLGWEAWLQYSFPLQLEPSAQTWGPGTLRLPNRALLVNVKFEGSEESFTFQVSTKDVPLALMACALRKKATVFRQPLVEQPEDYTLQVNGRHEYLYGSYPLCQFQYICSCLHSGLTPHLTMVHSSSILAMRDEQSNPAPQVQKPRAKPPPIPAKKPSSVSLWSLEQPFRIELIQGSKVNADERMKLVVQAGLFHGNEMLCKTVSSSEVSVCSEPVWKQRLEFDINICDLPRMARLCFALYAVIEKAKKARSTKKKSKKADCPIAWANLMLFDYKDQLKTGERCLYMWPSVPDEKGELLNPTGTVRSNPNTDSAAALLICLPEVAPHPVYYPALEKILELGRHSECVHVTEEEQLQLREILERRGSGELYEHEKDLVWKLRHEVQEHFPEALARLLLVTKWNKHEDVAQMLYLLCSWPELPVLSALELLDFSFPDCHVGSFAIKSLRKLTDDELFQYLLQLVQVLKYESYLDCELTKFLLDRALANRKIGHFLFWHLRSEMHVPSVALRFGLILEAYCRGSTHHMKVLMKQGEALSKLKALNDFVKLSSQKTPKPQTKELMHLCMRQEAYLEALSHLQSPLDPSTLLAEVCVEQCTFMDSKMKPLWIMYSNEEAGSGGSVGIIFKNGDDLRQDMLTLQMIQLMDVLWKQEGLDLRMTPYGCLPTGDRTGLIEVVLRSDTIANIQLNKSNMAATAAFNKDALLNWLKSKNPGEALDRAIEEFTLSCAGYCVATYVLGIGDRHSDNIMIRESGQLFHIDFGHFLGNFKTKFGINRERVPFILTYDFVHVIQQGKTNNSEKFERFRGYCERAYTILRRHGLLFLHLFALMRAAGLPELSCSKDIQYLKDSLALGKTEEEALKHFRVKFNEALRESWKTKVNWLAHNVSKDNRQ
assay: Inhibition of PI3delta
pIC50: −log10 of the molar value.
endpoint: pIC50

COc1cc(F)c2[nH]c(-c3c(C)nn(C)c3C)c(/C=C3/Oc4ccc(NC(=O)Nc5ccc(C(=O)N(C)CCN(C)C)cc5)cc4C3=O)c2c1
9.22

* * *

assay: Half life in rat microsome
Format: ADME
study conditions: microsomes
endpoint: half-life

COc1cc(F)c2[nH]c(-c3c(C)nn(C)c3C)c(/C=C3/Oc4ccc(NC(=O)Nc5ccc(C(=O)N(C)CCN(C)C)cc5)cc4C3=O)c2c1
> 30 min
